All figures here come from ChEMBL document CHEMBL1126316.

Molecular target: Integrin alpha-5/beta-1 (Homo sapiens, UniProt P05556+P08648)
Sequence (P05556 21-798 limits assumed): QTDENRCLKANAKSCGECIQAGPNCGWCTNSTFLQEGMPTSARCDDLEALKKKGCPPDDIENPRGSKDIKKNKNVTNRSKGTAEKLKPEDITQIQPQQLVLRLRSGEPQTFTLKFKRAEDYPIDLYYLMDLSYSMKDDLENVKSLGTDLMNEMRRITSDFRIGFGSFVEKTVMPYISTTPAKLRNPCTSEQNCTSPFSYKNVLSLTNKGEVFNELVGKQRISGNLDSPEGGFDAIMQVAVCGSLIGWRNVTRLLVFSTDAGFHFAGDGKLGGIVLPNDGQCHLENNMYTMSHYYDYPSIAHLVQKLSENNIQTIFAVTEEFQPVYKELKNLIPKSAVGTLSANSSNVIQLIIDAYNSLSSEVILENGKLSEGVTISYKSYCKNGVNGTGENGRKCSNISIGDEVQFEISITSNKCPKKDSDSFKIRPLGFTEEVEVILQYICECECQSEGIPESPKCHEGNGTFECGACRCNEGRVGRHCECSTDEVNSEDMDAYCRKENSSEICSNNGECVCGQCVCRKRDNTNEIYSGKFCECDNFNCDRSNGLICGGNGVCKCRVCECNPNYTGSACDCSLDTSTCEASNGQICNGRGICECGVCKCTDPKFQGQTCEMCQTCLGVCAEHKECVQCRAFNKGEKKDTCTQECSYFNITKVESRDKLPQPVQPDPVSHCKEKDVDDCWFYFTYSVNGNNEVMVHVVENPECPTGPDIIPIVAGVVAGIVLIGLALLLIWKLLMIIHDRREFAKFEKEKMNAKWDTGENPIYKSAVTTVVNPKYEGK
Sequence (P08648 42-894 limits assumed): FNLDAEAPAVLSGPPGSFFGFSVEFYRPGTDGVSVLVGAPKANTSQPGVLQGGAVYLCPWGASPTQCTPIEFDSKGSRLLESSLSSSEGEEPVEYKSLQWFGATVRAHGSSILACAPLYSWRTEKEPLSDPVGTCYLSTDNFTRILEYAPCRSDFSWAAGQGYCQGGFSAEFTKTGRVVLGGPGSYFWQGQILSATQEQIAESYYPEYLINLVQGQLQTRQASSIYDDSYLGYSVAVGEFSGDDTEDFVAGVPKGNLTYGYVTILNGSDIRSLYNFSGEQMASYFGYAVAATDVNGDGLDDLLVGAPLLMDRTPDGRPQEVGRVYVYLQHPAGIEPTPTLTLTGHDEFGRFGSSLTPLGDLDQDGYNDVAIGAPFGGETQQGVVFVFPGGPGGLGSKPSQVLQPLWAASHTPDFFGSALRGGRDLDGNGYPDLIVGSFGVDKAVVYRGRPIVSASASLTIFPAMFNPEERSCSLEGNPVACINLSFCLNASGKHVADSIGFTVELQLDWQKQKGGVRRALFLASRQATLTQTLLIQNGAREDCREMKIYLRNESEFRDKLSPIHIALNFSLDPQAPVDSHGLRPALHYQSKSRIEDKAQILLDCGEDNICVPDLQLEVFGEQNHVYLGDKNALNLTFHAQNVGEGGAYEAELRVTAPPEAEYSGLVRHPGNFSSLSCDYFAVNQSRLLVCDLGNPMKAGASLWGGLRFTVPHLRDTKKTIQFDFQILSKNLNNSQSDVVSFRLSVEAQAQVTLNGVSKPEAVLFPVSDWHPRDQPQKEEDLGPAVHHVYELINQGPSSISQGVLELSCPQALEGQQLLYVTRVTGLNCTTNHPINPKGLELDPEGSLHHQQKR
Sequence (P08648 895-1049 limits assumed): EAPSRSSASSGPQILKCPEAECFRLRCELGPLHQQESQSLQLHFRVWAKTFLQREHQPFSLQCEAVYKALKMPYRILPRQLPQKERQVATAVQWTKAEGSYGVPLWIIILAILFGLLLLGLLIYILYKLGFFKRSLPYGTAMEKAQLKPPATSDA
Experiment: Inhibition of HUVEC attachment to human fibronectin
observation-type: IC50

Req: Item CCCCS(=O)(=O)N[C@@H](Cc1ccc(OCCCCC2CCNCC2)cc1)C(=O)O [TIROFIBAN] with Integrin alpha-5/beta-1 (Homo sapiens, UniProt P05556+P08648) - IC50?
Resp: > 300 µM

====

Target: Integrin alpha-V/beta-3 (Homo sapiens, UniProt P05106+P06756)
Sequence (P05106 27-788 limits assumed): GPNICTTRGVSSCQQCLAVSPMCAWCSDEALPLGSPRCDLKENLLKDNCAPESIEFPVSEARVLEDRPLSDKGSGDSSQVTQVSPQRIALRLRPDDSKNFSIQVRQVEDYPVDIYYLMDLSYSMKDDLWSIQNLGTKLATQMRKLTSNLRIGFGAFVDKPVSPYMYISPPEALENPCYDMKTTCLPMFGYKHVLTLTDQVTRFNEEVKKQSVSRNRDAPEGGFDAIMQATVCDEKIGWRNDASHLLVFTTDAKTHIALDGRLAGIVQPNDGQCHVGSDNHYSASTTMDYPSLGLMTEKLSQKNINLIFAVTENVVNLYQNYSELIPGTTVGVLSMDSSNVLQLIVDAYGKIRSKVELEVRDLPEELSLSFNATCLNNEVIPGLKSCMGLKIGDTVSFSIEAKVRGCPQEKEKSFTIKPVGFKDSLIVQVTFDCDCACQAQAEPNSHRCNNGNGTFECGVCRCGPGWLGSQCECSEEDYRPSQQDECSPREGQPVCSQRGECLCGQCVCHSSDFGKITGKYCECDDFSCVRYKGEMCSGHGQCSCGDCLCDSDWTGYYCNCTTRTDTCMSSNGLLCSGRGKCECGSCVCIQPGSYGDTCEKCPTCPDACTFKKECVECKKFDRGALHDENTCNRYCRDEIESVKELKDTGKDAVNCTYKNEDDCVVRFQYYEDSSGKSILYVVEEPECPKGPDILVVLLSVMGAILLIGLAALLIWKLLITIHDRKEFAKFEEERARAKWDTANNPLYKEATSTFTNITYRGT
Sequence (P06756 31-889 limits assumed): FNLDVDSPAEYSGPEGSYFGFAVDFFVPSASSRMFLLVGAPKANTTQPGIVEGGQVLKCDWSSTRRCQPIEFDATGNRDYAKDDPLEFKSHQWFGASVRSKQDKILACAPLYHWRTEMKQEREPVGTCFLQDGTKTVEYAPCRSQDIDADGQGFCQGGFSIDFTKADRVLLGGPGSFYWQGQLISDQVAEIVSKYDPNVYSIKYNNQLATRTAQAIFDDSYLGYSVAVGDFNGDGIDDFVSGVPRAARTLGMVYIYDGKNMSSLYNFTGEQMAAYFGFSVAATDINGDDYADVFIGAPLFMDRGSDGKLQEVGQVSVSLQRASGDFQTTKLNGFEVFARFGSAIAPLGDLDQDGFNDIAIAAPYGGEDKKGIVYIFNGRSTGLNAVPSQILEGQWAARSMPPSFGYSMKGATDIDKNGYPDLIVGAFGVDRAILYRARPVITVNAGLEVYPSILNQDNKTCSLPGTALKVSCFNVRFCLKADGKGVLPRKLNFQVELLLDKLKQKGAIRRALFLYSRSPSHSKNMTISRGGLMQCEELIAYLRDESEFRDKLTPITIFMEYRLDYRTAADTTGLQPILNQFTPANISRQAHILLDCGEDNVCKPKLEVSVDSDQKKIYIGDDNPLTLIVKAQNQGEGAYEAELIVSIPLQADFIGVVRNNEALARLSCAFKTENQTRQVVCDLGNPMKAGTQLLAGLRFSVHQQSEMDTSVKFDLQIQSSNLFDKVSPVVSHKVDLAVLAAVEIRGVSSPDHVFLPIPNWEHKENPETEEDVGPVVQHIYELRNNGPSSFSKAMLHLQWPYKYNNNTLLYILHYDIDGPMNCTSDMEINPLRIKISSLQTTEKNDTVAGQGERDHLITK
Sequence (P06756 891-1048 limits assumed): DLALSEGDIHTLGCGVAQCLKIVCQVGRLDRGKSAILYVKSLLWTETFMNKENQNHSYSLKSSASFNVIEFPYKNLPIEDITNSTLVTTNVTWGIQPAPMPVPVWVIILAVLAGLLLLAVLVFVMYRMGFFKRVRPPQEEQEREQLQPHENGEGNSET
Experiment: Inhibition of HUVEC attachment to human vitronectin
observation-type: pIC50
To interpret pIC50, take it as minus log10 of a concentration measured in moles per litre.

Req: Suppose we examine the compound CCCCS(=O)(=O)N[C@@H](Cc1ccc(OCCCCC2CCNCC2)cc1)C(=O)O ; what pIC50 value has been reported?
Resp: 4.00
